target system: T1, Human CD138-Fc protein (human, UniProt P18827 23-254)
T1 construct: also called hCD138-Fc
T1 sequence: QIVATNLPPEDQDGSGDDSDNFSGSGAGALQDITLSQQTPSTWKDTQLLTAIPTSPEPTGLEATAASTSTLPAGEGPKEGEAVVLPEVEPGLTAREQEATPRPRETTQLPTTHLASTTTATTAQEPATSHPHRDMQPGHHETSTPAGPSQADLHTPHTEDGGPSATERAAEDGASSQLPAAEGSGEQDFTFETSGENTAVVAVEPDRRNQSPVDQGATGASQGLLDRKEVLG
experimental protocol: summary table; repeats the EC50 (nM) of Table 21, unit not given
Protocol: A CD138 binding ELISA was performed with 9 representative humanized antibodies to determine binding to portion of the linear CD138 peptide used for immunization (FIG. 7). […] Coated plates were incubated with various dilutions of each of the 9 representative antibodies overnight and binding was detected with a goat anti-human IgG (H+L)-HRP. EC50s were determined using four parameter fit curves (Table 21). […]
experimental readout: ELISA CD138 Fc binding
Response field accepts a number only; no unit should be typed.

# binder, ELISA CD138 Fc binding
data = [
    ("F6 cks-rep (hF6) (antibody, human IgG1, kappa, V domains shown, Humanized IgG1/kappa antibody; also called hF6 (no Fynomer)) VH: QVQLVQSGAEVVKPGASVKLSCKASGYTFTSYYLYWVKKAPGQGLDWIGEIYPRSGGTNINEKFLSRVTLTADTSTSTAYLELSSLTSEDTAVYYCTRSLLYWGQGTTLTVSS VL: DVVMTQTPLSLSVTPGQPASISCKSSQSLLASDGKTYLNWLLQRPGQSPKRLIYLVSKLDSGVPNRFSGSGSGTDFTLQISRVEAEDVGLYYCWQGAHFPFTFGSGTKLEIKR", 0.197),
]

Would you kindly look at the next entry?
stdin: // lookup ELISA CD138 Fc binding for F6 cka-rep (antibody, V domains shown, Humanized F12P16F6 expressed as whole antibody with human constant regions (kappa light chain)) VH: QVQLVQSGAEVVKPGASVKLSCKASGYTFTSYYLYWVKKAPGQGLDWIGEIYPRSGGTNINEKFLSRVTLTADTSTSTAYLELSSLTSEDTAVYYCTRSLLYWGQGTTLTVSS VL: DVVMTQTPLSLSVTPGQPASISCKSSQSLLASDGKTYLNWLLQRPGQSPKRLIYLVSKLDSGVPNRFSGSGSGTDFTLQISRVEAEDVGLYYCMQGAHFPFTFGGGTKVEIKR
stdout: 0.855
